Molecular target: Neuronal acetylcholine receptor; alpha3/beta4 (Homo sapiens, UniProt P30926+P32297)
Sequence (P30926 whole entry): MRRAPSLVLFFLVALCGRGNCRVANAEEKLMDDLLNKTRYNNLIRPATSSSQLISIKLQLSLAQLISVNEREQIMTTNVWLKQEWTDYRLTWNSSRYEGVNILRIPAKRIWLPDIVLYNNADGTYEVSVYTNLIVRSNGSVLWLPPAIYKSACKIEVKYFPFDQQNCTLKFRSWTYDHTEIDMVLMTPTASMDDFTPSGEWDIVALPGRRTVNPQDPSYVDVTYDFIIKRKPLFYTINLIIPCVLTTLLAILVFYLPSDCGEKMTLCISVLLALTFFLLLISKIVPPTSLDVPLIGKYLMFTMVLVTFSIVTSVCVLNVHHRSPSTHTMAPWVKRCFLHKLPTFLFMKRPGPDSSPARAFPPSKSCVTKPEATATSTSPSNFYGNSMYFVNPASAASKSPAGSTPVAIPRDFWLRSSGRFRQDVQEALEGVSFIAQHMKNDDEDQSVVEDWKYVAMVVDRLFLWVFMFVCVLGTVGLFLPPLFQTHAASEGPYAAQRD
Sequence (P32297 whole entry): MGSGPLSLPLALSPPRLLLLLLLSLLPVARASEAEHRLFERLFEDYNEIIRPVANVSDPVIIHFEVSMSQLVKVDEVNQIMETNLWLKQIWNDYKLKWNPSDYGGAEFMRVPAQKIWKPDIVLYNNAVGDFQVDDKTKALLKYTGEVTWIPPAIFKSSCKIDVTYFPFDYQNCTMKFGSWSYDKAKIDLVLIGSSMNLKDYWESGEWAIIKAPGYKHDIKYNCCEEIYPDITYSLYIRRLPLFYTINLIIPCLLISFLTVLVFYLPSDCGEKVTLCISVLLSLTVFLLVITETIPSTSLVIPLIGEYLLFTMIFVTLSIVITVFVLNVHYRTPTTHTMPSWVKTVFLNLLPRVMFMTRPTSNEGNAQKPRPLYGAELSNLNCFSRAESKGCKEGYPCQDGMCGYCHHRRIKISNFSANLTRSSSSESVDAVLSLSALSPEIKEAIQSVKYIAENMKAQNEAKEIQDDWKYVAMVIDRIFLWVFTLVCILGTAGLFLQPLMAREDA
Experiment: Displacement of [3H]epibatidine from alpha3beta4 nAChR in human SH-SY5Y cells after 2 hrs by liquid scintillation counting
Type: cell-based
Readout: pKi
Scale: negative log10 of molar concentration, which is what pKi denotes.

Hey, Neuronal acetylcholine receptor; alpha3/beta4 (Homo sapiens, UniProt P30926+P32297) data for `CCOc1cncc(/C=C/CCNC)c1` : pKi came out at 5.15

###

Molecular target: Neuronal acetylcholine receptor; alpha3/beta4 (Homo sapiens, UniProt P30926+P32297)
Assay: Agonist activity at human alpha3beta4 nAChR expressed in CHO cells assessed as calcium flux by calcium4-based FLIPR assay relative to nicotine
Assay type: functional, cell-based
Readout: Emax
Answer format reminder: number followed by unit.

Reported Emax ( Cc1ccc(C(=O)N2CC3CNCC3C2)o1 (stereo not drawn) ) = 7%

Reported Emax ( O=C(C1CC1)N1CC2CNCC2C1 (stereo not drawn) ) = 130%

Reported Emax ( N#Cc1coc(C(=O)N2CC3CNCC3C2)c1 (stereo not drawn) ) = 21%

Reported Emax ( `CCOc1cncc(/C=C/CCNC)c1` ) = 10%

Reported Emax ( `O=C(c1occc1Cl)N1CC2CNCC(C2)C1` ) = 26%

Reported Emax ( O=C(c1ccco1)N1CC2CNC(C2)C1 (stereo not drawn) ) = 34%

Reported Emax ( O=C(c1cc(F)co1)N1CC2CNCC2C1 (stereo not drawn) ) = 17%

Reported Emax ( `N#Cc1ccc(C(=O)N2CC3CNCC(C3)C2)o1` ) = 64%

Reported Emax ( O=C(c1ccc(Br)o1)N1CC2CNCC2C1 (stereo not drawn) ) = 25%

Reported Emax ( `O=C(C1CC1)N1C[C@H]2CN[C@@H](C2)C1` ) = 140%

Reported Emax ( `Cc1ccc(C(=O)N2CC3CNCC(C3)C2)o1` ) = 11%

Reported Emax ( `O=C(c1occc1F)N1CC2CNCC(C2)C1` ) = 54%

Reported Emax ( `O=C(c1ccc(F)o1)N1C[C@H]2CN[C@@H](C2)C1` ) = 120%

###

Molecular target: Neuronal acetylcholine receptor; alpha4/beta2 (Homo sapiens, UniProt P17787+P43681)
Sequence (P17787 whole entry): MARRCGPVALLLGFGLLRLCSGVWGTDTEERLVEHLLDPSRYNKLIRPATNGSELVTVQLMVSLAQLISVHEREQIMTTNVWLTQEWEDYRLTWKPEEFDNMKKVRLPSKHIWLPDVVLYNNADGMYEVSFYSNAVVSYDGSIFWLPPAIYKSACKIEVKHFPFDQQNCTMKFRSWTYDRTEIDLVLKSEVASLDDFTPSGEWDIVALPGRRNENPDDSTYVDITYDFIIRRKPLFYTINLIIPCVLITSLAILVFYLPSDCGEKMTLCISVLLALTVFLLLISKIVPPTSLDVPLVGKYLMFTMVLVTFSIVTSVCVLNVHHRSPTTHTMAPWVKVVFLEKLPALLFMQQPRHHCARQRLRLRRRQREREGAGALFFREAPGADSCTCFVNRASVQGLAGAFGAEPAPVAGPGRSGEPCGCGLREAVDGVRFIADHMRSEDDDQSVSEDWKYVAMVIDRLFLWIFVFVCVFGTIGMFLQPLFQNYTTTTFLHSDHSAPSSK
Sequence (P43681 whole entry): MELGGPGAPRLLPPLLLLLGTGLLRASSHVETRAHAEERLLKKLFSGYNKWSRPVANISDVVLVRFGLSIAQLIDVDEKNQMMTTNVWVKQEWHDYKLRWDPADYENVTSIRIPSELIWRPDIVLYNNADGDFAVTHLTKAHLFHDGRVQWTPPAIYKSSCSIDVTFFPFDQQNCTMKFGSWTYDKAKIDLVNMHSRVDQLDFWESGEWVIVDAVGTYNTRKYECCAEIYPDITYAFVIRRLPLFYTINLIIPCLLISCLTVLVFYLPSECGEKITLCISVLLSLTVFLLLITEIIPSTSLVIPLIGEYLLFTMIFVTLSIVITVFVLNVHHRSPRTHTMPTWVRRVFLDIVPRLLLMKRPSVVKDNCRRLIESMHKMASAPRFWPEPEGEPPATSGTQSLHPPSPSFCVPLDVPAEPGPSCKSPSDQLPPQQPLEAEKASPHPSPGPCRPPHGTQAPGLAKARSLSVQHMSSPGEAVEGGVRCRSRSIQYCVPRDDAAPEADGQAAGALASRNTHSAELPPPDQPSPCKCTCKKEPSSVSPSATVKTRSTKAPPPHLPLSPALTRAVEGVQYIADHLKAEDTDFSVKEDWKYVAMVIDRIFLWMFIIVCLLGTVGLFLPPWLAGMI
Assay: Displacement of [3H]nicotine from alpha4beta2 nAChR in human SH-EP1 cells after 2 hrs by liquid scintillation assay
Format: cell-based
Listed next: entries and their corresponding Ki.

Consider the worked cases shown below.
[[record]]
compound = "O=C(c1cc(Br)co1)N1CC2CNCC2C1 (stereo not drawn)"
assay_target = "Neuronal acetylcholine receptor; alpha4/beta2 (Homo sapiens, UniProt P17787+P43681)"
readout = "Ki"
measured_value = "16 nM"

[[record]]
compound = "O=C(c1ccc(Cl)o1)N1C[C@H]2CN[C@@H](C2)C1"
assay_target = "Neuronal acetylcholine receptor; alpha4/beta2 (Homo sapiens, UniProt P17787+P43681)"
readout = "Ki"
measured_value = "16 nM"

[[record]]
compound = "O=C(c1ccc(F)o1)N1C[C@@H]2CN[C@H](C2)C1"
assay_target = "Neuronal acetylcholine receptor; alpha4/beta2 (Homo sapiens, UniProt P17787+P43681)"
readout = "Ki"
measured_value = "5 nM"

[[record]]
compound = "COc1ccc(C(=O)N2CC3CNCC3C2)cc1 (stereo not drawn)"
assay_target = "Neuronal acetylcholine receptor; alpha4/beta2 (Homo sapiens, UniProt P17787+P43681)"
readout = "Ki"
measured_value = "26 nM"

[[record]]
compound = "O=C(C1CC1)N1C[C@@H]2CN[C@H](C2)C1"
assay_target = "Neuronal acetylcholine receptor; alpha4/beta2 (Homo sapiens, UniProt P17787+P43681)"
readout = "Ki"
measured_value = "1 nM"

[[record]]
compound = "O=C(C1CC1)N1CC2CNC(C2)C1 (stereo not drawn)"
assay_target = "Neuronal acetylcholine receptor; alpha4/beta2 (Homo sapiens, UniProt P17787+P43681)"
readout = "Ki"
measured_value = "4 nM"

[[record]]
compound = "O=C(c1ccc(F)o1)N1CC2CNCC(C2)C1"
assay_target = "Neuronal acetylcholine receptor; alpha4/beta2 (Homo sapiens, UniProt P17787+P43681)"
readout = "Ki"
measured_value = "3 nM"

[[record]]
compound = "O=C(c1ccc(Oc2ccccc2)cc1)N1CC2CNCC2C1 (stereo not drawn)"
assay_target = "Neuronal acetylcholine receptor; alpha4/beta2 (Homo sapiens, UniProt P17787+P43681)"
readout = "Ki"
measured_value = "19 nM"


Reported Ki ( `O=C(c1cc(Br)co1)N1CC2CNCC(C2)C1` ) = 3 nM

Reported Ki ( O=C(c1cccnc1)N1CC2CNCC2C1 (stereo not drawn) ) = 490 nM

Reported Ki ( O=C(c1ccno1)N1CC2CNCC2C1 (stereo not drawn) ) = 49 nM

Reported Ki ( `O=C(c1ccc(Br)o1)N1C[C@H]2CN[C@@H](C2)C1` ) = 45 nM

Reported Ki ( `Cc1ccc(C(=O)N2CC3CNCC(C3)C2)o1` ) = 46 nM

###

Molecular target: Neuronal acetylcholine receptor subunit alpha-7 (Homo sapiens)
Sequence (P36544 whole entry): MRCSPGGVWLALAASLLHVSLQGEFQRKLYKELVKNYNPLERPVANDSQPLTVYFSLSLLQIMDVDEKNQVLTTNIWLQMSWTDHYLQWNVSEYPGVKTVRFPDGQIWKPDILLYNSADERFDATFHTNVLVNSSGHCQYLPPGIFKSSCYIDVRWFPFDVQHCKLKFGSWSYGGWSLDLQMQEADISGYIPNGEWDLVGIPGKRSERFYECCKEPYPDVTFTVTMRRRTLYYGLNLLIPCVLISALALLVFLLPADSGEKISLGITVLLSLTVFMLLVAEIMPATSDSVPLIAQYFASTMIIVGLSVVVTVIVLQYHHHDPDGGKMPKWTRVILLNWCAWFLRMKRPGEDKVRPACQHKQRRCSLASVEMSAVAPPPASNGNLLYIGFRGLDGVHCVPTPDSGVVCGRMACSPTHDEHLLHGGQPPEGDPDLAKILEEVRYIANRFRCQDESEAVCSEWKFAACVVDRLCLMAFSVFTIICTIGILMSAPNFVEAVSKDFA
Assay: Displacement of [3H]epibatidine from human alpha7 nAChR expressed in CHO cells after 2 hrs by liquid scintillation counting
// class assignment uses Ki with these ranges: band A: < 4 µM; band B: ≥ 4 µM and < 8 µM; band C: ≥ 8 µM

[[record]]
compound = "O=C(c1ccc(F)o1)N1CC2CNCC2C1 (centres undefined)"
category = "band A"

[[record]]
compound = "O=C(C1CC1)N1CC2CNCC(C2)C1"
category = "band A"

[[record]]
compound = "Cc1ncoc1C(=O)N1CC2CNCC2C1 (centres undefined)"
category = "band B"

[[record]]
compound = "Cc1ccoc1C(=O)N1CC2CNCC2C1 (centres undefined)"
category = "band A"


Which category does the recorded Ki put O=C(c1ccccc1)N1CC2CNCC2C1 (centres undefined) in?
band C

Which category does the recorded Ki put O=C(c1ccccn1)N1CC2CNCC2C1 (centres undefined) in?
band C

Which category does the recorded Ki put O=C(c1cc(Br)co1)N1CC2CNCC2C1 (centres undefined) in?
band B

Which category does the recorded Ki put `O=C(c1ccco1)N1C[C@H]2CN[C@@H](C2)C1` in?
band A

Which category does the recorded Ki put `O=C(c1occc1F)N1CC2CNCC(C2)C1` in?
band C

Which category does the recorded Ki put `O=C(c1ccc(Cl)o1)N1C[C@H]2CN[C@@H](C2)C1` in?
band C

Which category does the recorded Ki put `Cc1ccc(C(=O)N2CC3CNCC(C3)C2)o1` in?
band C

Which category does the recorded Ki put O=C(c1ccco1)N1CC2CNCC2C1 (centres undefined) in?
band B

###

Molecular target: UniProt P46098
Sequence (P46098 whole entry): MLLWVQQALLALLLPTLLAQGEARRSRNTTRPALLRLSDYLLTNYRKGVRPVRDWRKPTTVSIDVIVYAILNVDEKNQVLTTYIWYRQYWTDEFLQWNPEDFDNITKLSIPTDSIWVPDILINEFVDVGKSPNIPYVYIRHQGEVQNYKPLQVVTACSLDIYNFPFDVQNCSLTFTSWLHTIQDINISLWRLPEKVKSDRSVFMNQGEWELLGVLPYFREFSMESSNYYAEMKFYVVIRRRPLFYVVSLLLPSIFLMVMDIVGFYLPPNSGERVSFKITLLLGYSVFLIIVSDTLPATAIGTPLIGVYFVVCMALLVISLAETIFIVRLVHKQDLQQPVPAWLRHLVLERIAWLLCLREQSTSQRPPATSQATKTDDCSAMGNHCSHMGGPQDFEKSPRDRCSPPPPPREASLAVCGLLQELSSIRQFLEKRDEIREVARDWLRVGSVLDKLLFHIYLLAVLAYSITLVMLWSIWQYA
Readout: pKi
Scale: negative log10 of molar concentration, which is what pKi denotes.

Hey, UniProt P46098 data for O=C(c1ccc(Cl)o1)N1CC2CNCC2C1 (stereo unspecified) : pKi came out at 6.15

###

Molecular target: Neuronal acetylcholine receptor; alpha4/beta2 (Rattus norvegicus, UniProt P09483+P12390)
Sequence (P09483 whole entry): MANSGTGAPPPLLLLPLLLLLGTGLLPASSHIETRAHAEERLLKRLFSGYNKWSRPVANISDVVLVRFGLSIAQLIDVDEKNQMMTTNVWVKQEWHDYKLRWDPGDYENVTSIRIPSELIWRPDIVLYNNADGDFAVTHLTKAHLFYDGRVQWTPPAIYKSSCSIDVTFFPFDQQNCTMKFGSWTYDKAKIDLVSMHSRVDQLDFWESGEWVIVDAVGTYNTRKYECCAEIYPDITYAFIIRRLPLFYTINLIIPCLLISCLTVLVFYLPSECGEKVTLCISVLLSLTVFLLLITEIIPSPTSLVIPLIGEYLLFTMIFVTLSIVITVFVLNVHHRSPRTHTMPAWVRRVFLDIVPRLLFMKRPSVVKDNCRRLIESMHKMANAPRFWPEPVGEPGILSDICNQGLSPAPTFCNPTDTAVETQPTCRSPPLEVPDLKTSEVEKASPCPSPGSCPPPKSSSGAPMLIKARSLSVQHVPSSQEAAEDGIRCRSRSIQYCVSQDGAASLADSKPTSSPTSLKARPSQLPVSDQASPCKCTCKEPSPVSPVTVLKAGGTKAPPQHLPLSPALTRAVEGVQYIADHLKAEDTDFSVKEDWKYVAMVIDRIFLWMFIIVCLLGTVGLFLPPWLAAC
Sequence (P12390 whole entry): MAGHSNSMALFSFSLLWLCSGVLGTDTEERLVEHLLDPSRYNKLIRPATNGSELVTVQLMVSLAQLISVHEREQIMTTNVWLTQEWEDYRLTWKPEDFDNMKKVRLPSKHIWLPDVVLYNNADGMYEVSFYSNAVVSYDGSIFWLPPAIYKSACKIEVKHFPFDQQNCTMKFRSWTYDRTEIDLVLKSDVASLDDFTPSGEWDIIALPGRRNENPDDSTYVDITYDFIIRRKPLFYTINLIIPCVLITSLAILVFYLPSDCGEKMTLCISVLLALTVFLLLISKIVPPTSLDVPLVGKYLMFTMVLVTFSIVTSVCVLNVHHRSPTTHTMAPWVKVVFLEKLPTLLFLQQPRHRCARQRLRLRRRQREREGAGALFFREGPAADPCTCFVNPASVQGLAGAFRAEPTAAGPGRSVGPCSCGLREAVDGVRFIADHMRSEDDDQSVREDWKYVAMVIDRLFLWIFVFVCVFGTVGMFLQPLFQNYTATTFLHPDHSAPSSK
Test: Displacement of [3H]epibatidine from alpha4beta2 nAChR in Sprague-Dawley rat cortex after 2 hrs by liquid scintillation counting
pKi: −log10 of the molar value.
Decide using pKi: a value greater than or equal to 7 is yes (1), a smaller one is no (0).

Please review the entries below; each comes with its answer.
[[record]]
compound = "O=C(c1ccc(Cl)o1)N1CC2CNCC2C1 (stereo not drawn) [AZD1446]"
assay_target = "Neuronal acetylcholine receptor; alpha4/beta2 (Rattus norvegicus, UniProt P09483+P12390)"
category = "yes (1)"

[[record]]
compound = "Cc1ccoc1C(=O)N1CC2CNCC(C2)C1"
assay_target = "Neuronal acetylcholine receptor; alpha4/beta2 (Rattus norvegicus, UniProt P09483+P12390)"
category = "no (0)"

[[record]]
compound = "O=C(c1occc1Cl)N1CC2CNCC2C1 (stereo not drawn)"
assay_target = "Neuronal acetylcholine receptor; alpha4/beta2 (Rattus norvegicus, UniProt P09483+P12390)"
category = "yes (1)"

[[record]]
compound = "CCOc1cncc(/C=C/CCNC)c1"
assay_target = "Neuronal acetylcholine receptor; alpha4/beta2 (Rattus norvegicus, UniProt P09483+P12390)"
category = "yes (1)"

[[record]]
compound = "O=C(c1ccco1)N1C[C@@H]2CN[C@H](C2)C1"
assay_target = "Neuronal acetylcholine receptor; alpha4/beta2 (Rattus norvegicus, UniProt P09483+P12390)"
category = "yes (1)"

[[record]]
compound = "Cc1ncoc1C(=O)N1CC2CNCC2C1 (stereo not drawn)"
assay_target = "Neuronal acetylcholine receptor; alpha4/beta2 (Rattus norvegicus, UniProt P09483+P12390)"
category = "yes (1)"

[[record]]
compound = "Cc1ccc(C(=O)N2CC3CNCC3C2)o1 (stereo not drawn)"
assay_target = "Neuronal acetylcholine receptor; alpha4/beta2 (Rattus norvegicus, UniProt P09483+P12390)"
category = "no (0)"

[[record]]
compound = "O=C(c1ccccc1)N1CC2CNCC(C2)C1"
assay_target = "Neuronal acetylcholine receptor; alpha4/beta2 (Rattus norvegicus, UniProt P09483+P12390)"
category = "no (0)"


I'd appreciate it if you could say whether O=C(c1ccno1)N1CC2CNCC2C1 (stereo not drawn) has pKi at least equal to 7.
yes (1)

I'd appreciate it if you could say whether O=C(c1ccco1)N1CC2CNCC2C1 (stereo not drawn) has pKi at least equal to 7.
yes (1)

I'd appreciate it if you could say whether `N#Cc1ccoc1C(=O)N1CC2CNCC(C2)C1` has pKi at least equal to 7.
no (0)

I'd appreciate it if you could say whether `O=C(c1ccc(F)o1)N1CC2CNCC(C2)C1` has pKi at least equal to 7.
yes (1)

I'd appreciate it if you could say whether `O=C(c1ccco1)N1CC2CNCC(C2)C1` has pKi at least equal to 7.
yes (1)

I'd appreciate it if you could say whether `O=C(c1ccc(F)o1)N1C[C@@H]2CN[C@H](C2)C1` has pKi at least equal to 7.
yes (1)

I'd appreciate it if you could say whether O=C(c1ccccn1)N1CC2CNCC2C1 (stereo not drawn) has pKi at least equal to 7.
no (0)

I'd appreciate it if you could say whether O=C(c1ccncc1)N1CC2CNC(C2)C1 (stereo not drawn) has pKi at least equal to 7.
yes (1)

I'd appreciate it if you could say whether O=C(C1CC1)N1CC2CNC(C2)C1 (stereo not drawn) has pKi at least equal to 7.
yes (1)

I'd appreciate it if you could say whether O=C(c1ccc(Br)o1)N1CC2CNCC2C1 (stereo not drawn) has pKi at least equal to 7.
no (0)

I'd appreciate it if you could say whether `Cc1ccc(C(=O)N2CC3CNCC(C3)C2)o1` has pKi at least equal to 7.
no (0)

I'd appreciate it if you could say whether O=C(c1ccc(F)o1)N1CC2CNCC2C1 (stereo not drawn) has pKi at least equal to 7.
yes (1)

I'd appreciate it if you could say whether O=C(C1CC1)N1CC2CNCC2C1 (stereo not drawn) has pKi at least equal to 7.
yes (1)

I'd appreciate it if you could say whether `O=C(c1cc(Br)co1)N1CC2CNCC(C2)C1` has pKi at least equal to 7.
yes (1)
